- Organism: Rattus norvegicus
- Test: Tested for the vasorelaxant potency in methoxamine contracted rat aorta
- Type: functional
Measure Name: IC50 (µM)

{"Chemical Structure": "Cc1ccc(N/C(=N/[C@@H]2c3cc(C#N)ccc3OC(C)(C)[C@H]2O)NC#N)cc1C", "Scale Unit": "µM", "IC50": 5.1}

P. CC1(C)Oc2ccc(C#N)cc2[C@@H](/N=C(\NC#N)Nc2cccc([N+](=O)[O-])c2)[C@@H]1O
Q. COC(=O)c1ccc(N/C(=N/[C@@H]2c3cc(C#N)ccc3OC(C)(C)[C@H]2O)NC#N)cc1
Query block: Would you let me know which has the greater IC50 value, P or Q ? Select an item and report its label.
Result block: Q
(Q: 18.4 µM, P: 0.67 µM)
